Entries annotated with measured IC50
# Test system: MYB mRNA
# assay-notes: Gene panel canonical junction qPCR assay, decrease in CJ mRNA, Table 3
# Assay type: cell-based
# study-conditions: decrease in CJ mRNA levels, canonical junction qPCR, gene panel

Cc1cn2cc(NC(=O)c3ccc(N4CCC(NC5CC5)CC4)c4cn(C)nc34)nc2c(Cn2cnc(C(N)=O)c2)n1 [Compound 775, 2,2,2-trifluoroacetate]    > 10000 nM

Prompt line: Would you kindly share the measured IC50 for COc1nc2c(C(=O)Nc3cc(Cl)c4nn(C)cc4c3)ccc(N3C[C@H](C)N[C@@H](C)C3)c2s1 ?
Response line: < 100 nM

Prompt line: Would you kindly share the measured IC50 for CCNC1C(C)CN(c2ccc(C(=O)Nc3cn4cc(C)nc(C)c4n3)c3nn(C)cc23)CC1C (centres unmarked) ?
Response line: > 10000 nM

Prompt line: Would you kindly share the measured IC50 for C=CCNC1CCN(c2ccc(C(=O)Nc3cc(CNC4(C)COC4)c4nn(C)cc4c3)c3nn(C)cc23)CC1 ?
Response line: > 10000 nM

Prompt line: Would you kindly share the measured IC50 for COc1nc2c(C(=O)Nc3cc(C#N)c4nn(C)cc4c3)ccc(N3C[C@H](C)N[C@@H](C)C3)c2s1 ?
Response line: < 100 nM

Prompt line: Would you kindly share the measured IC50 for COc1nc2c(C(=O)Nc3cc(F)c4nn(C)cc4c3)ccc(N3CC(C)NCC3C)c2s1 (centres unmarked) ?
Response line: 1000 to 10000 nM

Prompt line: Would you kindly share the measured IC50 for Cc1cn2cc(NC(=O)c3ccc(N4CCCC(N)C4)c4cn(C)nc34)nc2c(CNS(C)(=O)=O)n1 (centres unmarked) ?
Response line: > 10000 nM

Prompt line: Would you kindly share the measured IC50 for COc1cc2c(N3CCC(NC4CC4)CC3)ccc(C(=O)Nc3cn4cc(C)nc(CNS(C)(=O)=O)c4n3)n2n1 ?
Response line: 1000 to 10000 nM

###

# Tested on: MYB mRNA
# assay-notes: Gene panel canonical junction qPCR assay, decrease in CJ mRNA, Table 3
# Assay type: cell-based
# study-conditions: decrease in canonical junction (CJ) mRNA, gene panel qPCR, Table 3
metric: IC50

Example cases with answers are listed next.
COc1cc2nn(C)cc2cc1NC(=O)c1c(NCCO)cc(N2CCC(NC3CC3)CC2)c2cn(C)nc12    1 to 10 µM
Cc1cn2cc(C(=O)Nc3ccc(N4C[C@@H](C)N[C@@H](C)C4)c4cn[nH]c34)cc(F)c2n1    > 10 µM
COc1cc2nn(C)cc2cc1NC(=O)c1ccc(N2C[C@H](C)N[C@@H](C)C2)c2cn(C)nc12    0.1 to 1 µM
Cc1cn2cc(NC(=O)c3c(F)cc(N4CCC(NC5CC5)CC4)c4cn(C)nc34)nc(Oc3ccccn3)c2n1    < 0.1 µM
Cc1cn2nc(NC(=O)c3ccc(N4CCC(NC5CC5)CC4)c4cn(C)nc34)cc(C)c2n1    0.1 to 1 µM
CCNC1CCN(c2cc(F)c(C(=O)Nc3cn4c(Cl)c(C)nc4c(F)c3OC)c3nn(C)cc23)CC1    > 10 µM

Prompt line: Find the measured IC50: item COc1c(NC(=O)c2c(F)cc(N3CCC(NC4CC4)CC3)c3cn(C)nc23)cn2cc(C)nc2c1C#N , target or system MYB mRNA.
Response line: 0.1 to 1 µM

Prompt line: Find the measured IC50: item Cc1cn2cc(NC(=O)c3ccc(N4CCN(C5CNC5)CC4)c4cn(C)nc34)nc2c(C)n1 , target or system MYB mRNA.
Response line: 0.1 to 1 µM

###

# Tested on: MYB mRNA
# assay-notes: Gene panel canonical junction qPCR assay, decrease in CJ mRNA, Table 3
# Type: cell-based
# study-conditions: decrease in canonical junction (CJ) mRNA, gene panel qPCR, Table 3
pIC50: −log10 of the molar value.
Entries annotated with measured pIC50

Example cases with answers are listed next.
Cc1nc(CN)cn2cc(NC(=O)c3c(F)cc(N4CCC(NC5CC5)CC4)c4cn(C)nc34)nc12 [Compound 401]    5.00 to 6.00
Cc1cn2cc(NC(=O)c3ccc(N4CC[C@@H](NCC5COC5)C4)c4cn(C)nc34)cc(F)c2n1 [Compound 104]    > 7.00
CCNC1CCN(c2ccc(C(=O)Nc3cc(F)c4nc(C)cn4c3)c3c2nnn3C)CC1 [Compound 198, 2,2,2-trifluoroacetate]    < 5.00
Cc1cn2cc(NC(=O)c3ccc(N4CCC(NC5(C)CC5)CC4)c4cn(C)nc34)cc(F)c2n1 [Compound 355]    > 7.00
Cc1cn2cc(NC(=O)c3ccc(N4CCC(NC5CC5)CC4)c4cn(C)nc34)nc2c(-c2ccns2)n1 [Compound 486]    < 5.00
Cc1cn2cc(NC(=O)c3ccc(N4CCC(NCC5CC5)CC4)c4cn(C)nc34)nc2c(C)n1 [Compound 575]    5.00 to 6.00
CCNC1CCN(c2ccc(C(=O)Nc3cc(C(=O)O)c4nc(C)cn4c3)c3nn(C)cc23)CC1 [Compound 318]    < 5.00
CN[C@H]1CCN(c2ccc(C(=O)Nc3cc(F)c4nc(C)cn4c3)c3nn(C)cc23)[C@@H]1C (single isomer, unassigned) [Compound 154]    6.00 to 7.00

Prompt line: Would you kindly share the measured pIC50 for CCNCC1CCN(c2cc(F)c(C(=O)Nc3cn4cc(C)nc(C)c4n3)c3nn(C)cc23)C1 (stereo not drawn) [Compound 471] ?
Response line: 6.00 to 7.00

Prompt line: Would you kindly share the measured pIC50 for Cn1cc2cc(NC(=O)c3ccc(N4CCC(NC5CC5)CC4)c4cn(C)nc34)c(C(F)(F)F)cc2n1 [Compound 476] ?
Response line: 5.00 to 6.00

Prompt line: Would you kindly share the measured pIC50 for Cc1cn2cc(NC(=O)c3ccc(N4CCC5NCC5C4)c4cn(C)nc34)nc2c(C)n1 (stereo not drawn) [Compound 530] ?
Response line: 5.00 to 6.00

Prompt line: Would you kindly share the measured pIC50 for Cc1cn2cc(NC(=O)c3ncc(N4CCC(NC5CC5)CC4)c4cn(C)nc34)cc(F)c2n1 [Compound 361] ?
Response line: 6.00 to 7.00

Prompt line: Would you kindly share the measured pIC50 for COCCN[C@@H]1CCN(c2cc(O)c(C(=O)Nc3cc(F)c4nc(C)cn4c3)c3nn(C)cc23)C1 [Compound 285] ?
Response line: > 7.00

Prompt line: Would you kindly share the measured pIC50 for Cc1cn2cc(NC(=O)c3ccc(N4C[C@H](C)N[C@@H](C)C4)c4cn(C)nc34)cc(F)c2n1 [Compound 588] ?
Response line: > 7.00

Prompt line: Would you kindly share the measured pIC50 for CCNC1CCN(c2ccc(C(=O)Nc3cc(F)c4nc(COC)cn4c3)c3nn(C)cc23)CC1 [Compound 284] ?
Response line: 5.00 to 6.00

###

# Test system: MYB mRNA
# assay-notes: Gene panel canonical junction qPCR assay, decrease in CJ mRNA, Table 3
# Type: cell-based
# study-conditions: decrease in CJ mRNA levels, canonical junction qPCR, gene panel
metric: IC50

Prompt line: Would you kindly share the measured IC50 for COc1nc2c(C(=O)Nc3cc4cn(C)nc4cc3OC)ccc(N3CCC(NC4CC4)CC3)c2s1 [Compound 668, 2,2,2-trifluoroacetate] ?
Response line: 0.1 to 1 µM

Prompt line: Would you kindly share the measured IC50 for COc1nc2c(C(=O)Nc3cc(C)c4nc(C)cn4n3)ccc(N3C[C@H](C)N[C@@H](C)C3)c2s1 ?
Response line: < 0.1 µM

Prompt line: Would you kindly share the measured IC50 for C[C@H]1CN(c2ccc(C(=O)Nc3cc(F)c4nn(C)cc4c3)c3nc(CN)sc23)C[C@H](C)N1 ?
Response line: < 0.1 µM

Prompt line: Would you kindly share the measured IC50 for COc1cc2c(N3C[C@H](C)N[C@@H](C)C3)ccc(C(=O)Nc3cc4cn(C)nc4cc3OC)n2n1 ?
Response line: < 0.1 µM

Prompt line: Would you kindly share the measured IC50 for Cn1cc2cc(NC(=O)c3ccc(N4CCC(NC5CC5)CC4)c4cn(C)nc34)cc(CNc3ncco3)c2n1 ?
Response line: 1 to 10 µM

Prompt line: Would you kindly share the measured IC50 for COc1nc2c(C(=O)Nc3cc(CNC(C)=O)c4nn(C)cc4c3)ccc(N3C[C@H](C)N[C@@H](C)C3)c2s1 ?
Response line: < 0.1 µM

Prompt line: Would you kindly share the measured IC50 for Cc1cn2cc(NC(=O)c3ccc(N4CCC(NC5CC5)CC4)c4cn(C)nc34)nc2c(Cn2ccc(=O)[nH]c2=O)n1 [Compound 733, 2,2,2-trifluoroacetate] ?
Response line: > 10 µM
